Origin of the recorded values: patent US20230094162A1

experimental target: T1, soluble PD-L1 fused to a His tag (shPD-L1) (UniProt Q9NZQ7 19-238, limits assumed)
T1 construct: the species of shPD-L1 is not written out; also called shPD-L1-his; not shown: His tag
T1 sequence (Q9NZQ7 19-238 limits assumed): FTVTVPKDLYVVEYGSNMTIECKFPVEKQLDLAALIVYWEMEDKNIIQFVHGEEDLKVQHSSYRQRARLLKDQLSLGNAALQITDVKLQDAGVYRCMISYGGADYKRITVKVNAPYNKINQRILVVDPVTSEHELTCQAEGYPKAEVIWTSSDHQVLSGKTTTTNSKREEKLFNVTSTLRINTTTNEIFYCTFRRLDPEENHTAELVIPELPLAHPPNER
method notes: ELISA on plate-coated shPD-L1-his, anti-human kappa-HRP detection, RLU
observed property: binding result

binder	observed property	result
hPD-L1 MAB-2B (Fab) (Fab, V domains shown, Fab fragment) VH: EVQLVESGGGLVQPGGSLRLSCAASGFTFSGYTMSWVRQAPGKGLEWVAYISIKGGTTYYPDTVKGRFTISRDNAKNTLYLQMNSLKTEDTAVYYCARGGLPYYFDYWGQGTLVTVSS VL: DIQMTQSPSSLSASVGDRVTITCKASQVVNTAVAWYQQKPGKAPKLLIYWASTRHTGVPSRFSGSGSGTDFTLTISSLQPEDFATYYCQQHYNTPLTFGQGTKVEIK	binding result	binds
hPD-L1 MAB-2E (Fab) (Fab, V domains shown, Fab fragment) VH: EVQLVESGGGLVQPGGSLRLSCAASGFTFSSYTMSWVRQAPGKGLEWVAYISIKGGTTYYPDTVKGRFTISRDNAKNTLYLQMNSLKTEDTAVYYCARAGLPYYFDYWGQGTLVTVSS VL: DIQMTQSPSSLSASVGDRVTITCKASQLVNTAVAWYQQKPGKAPKLLIYWASTRHTGVPSRFSGSGSGTDFTLTISSLQPEDFATYYCQQHYNTPLTFGQGTKVEIK	binding result	binds
hPD-L1 MAB-2C (Fab) (Fab, V domains shown, Fab fragment) VH: EVQLVESGGGLVQPGGSLRLSCAASGFTFSGYTMSWVRQAPGKGLEWVAYISIKGGTTYYPDTVKGRFTISRDNAKNTLYLQMNSLKTEDTAVYYCARQGLPYYGDYWGQGTLVTVSS VL: DIQMTQSPSSLSASVGDRVTITCKASQLVNTAVAWYQQKPGKAPKLLIYWASTRHTGVPSRFSGSGSGTDFTLTISSLQPEDFATYYCQQHYNTPLTFGQGTKVEIK	binding result	binds
